- Tested on: Escherichia coli TOP10;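 also: peptides expressed intracellularly from a pBAD plasmid library in pooled LB shake-flask culture, induced with 0.3% L-arabinose, DNA abundance read by NGS, three biological replicates, DESeq2 with apeglm shrinkage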
- assay-protocol: shrunken log2 fold change of peptide-encoding DNA abundance (4.5 h post-induction vs induction); higher = less antimicrobial activity (less host growth inhibition)
- reported-conditions: time post-induction: 4.5 h; library: site-saturation at positions 5, 18, 19, 20
Kind request: treat -0.03 as inclusive, so shrunken log2 fold change at -0.03 or higher is true (1), anything lower is false (0).

Take a look at these entries with their results.
RRIRLRPPRLPRPRPRPTRQPRP: false (0)
RRIRCRPPRLPRPRPRPRCQPRP: false (0)
RRIRMRPPRLPRPRPRPDTCPRP: true (1)
RRIRGRPPRLPRPRPRPMGDPRP: true (1)
RRIRQRPPRLPRPRPRPKNQPRP: false (0)
RRIRWRPPRLPRPRPRPPYDPRP: false (0)

Task item: Does shrunken log2 fold change meet or surpass -0.03 for "RRIRSRPPRLPRPRPRPSHCPRP" ?
Reply: true (1)
